- Tested on: SF-268
- experiment: Cytotoxicity against human SF268 cells after 48 hrs by SRB assay
- Assay type: functional
- assay.conditions: SF-268, 48 h
parameter: GI50 (µM)
Numbers only, in µM.

Illustrative cases are given below, each with its answer.
CC(=O)N1N=C(c2ccc(Nc3ccnc4cc(Cl)ccc34)cc2)CC1c1ccc(Cl)cc1 (stereo not given); 9.1
O=CN1N=C(c2ccc(Nc3ccnc4cc(Cl)ccc34)cc2)CC1c1ccccc1 (stereo not given); 3.96
O=CN1N=C(c2ccc(Nc3ccnc4cc(Cl)ccc34)cc2)CC1c1ccc(Cl)cc1 (stereo not given); 0.85

I would be grateful if you could share the reported GI50 for COc1cc(C2CC(c3cccc(Nc4ccnc5cc(Cl)ccc45)c3)=NN2C=O)cc(OC)c1OC (stereo not given) .
2.55
